Assay: Induction of chondrogenesis in human MSC assessed as maximum activity at 61.73 nM incubated for 6 days by rhodamine B and Nile red staining based imaging analysis relative to control
Type: functional
Details: BMMSC, 144 h, time 6 day
Recorded Metric: Emax at 0.06173 µM (%)
The reply should be a number in %, with the unit left off.

QUERY: // lookup Emax at 0.06173 µM for "CCNCc1cncc(-c2ccc3[nH]nc(-c4nc5c(-c6cc(F)cc(NCCN(C)C)c6)nccc5[nH]4)c3n2)c1"
RESULT: 35.6

QUERY: // lookup Emax at 0.06173 µM for "COc1cncc(-c2ccc3[nH]nc(-c4nc5c(-c6cccc(F)c6)ccnc5[nH]4)c3n2)c1"
RESULT: 47

QUERY: // lookup Emax at 0.06173 µM for "CCC(=O)Nc1cncc(-c2ccc3[nH]nc(-c4nc5c(-c6cccc(F)c6)ccnc5[nH]4)c3n2)c1"
RESULT: 29.3

QUERY: // lookup Emax at 0.06173 µM for "COc1cncc(-c2ccc3[nH]nc(-c4nc5c(-c6cccc(F)c6)cncc5[nH]4)c3n2)c1"
RESULT: 55.5

* * *

Biological target: Dual specificity tyrosine-phosphorylation-regulated kinase 1A (Homo sapiens, UniProt Q13627)
Assay: Inhibition of recombinant DYRK1A (unknown origin) using Ser/Thr 18 peptide as substrate incubated for 1 hr in presence of ATP by FRET assay
Recorded Metric: pEC50
pEC50 field: float, defined as -log10 of concentration (mol/L).

QUERY: // lookup pEC50 for "CS(=O)(=O)NCc1cc(F)cc(-c2cncc3[nH]c(-c4n[nH]c5ccc(-c6cncnc6)nc45)cc23)c1"
RESULT: 7.12

QUERY: // lookup pEC50 for "CN(C)Cc1cncc(-c2cc3c(-c4cc5c(-c6ccncc6)cncc5[nH]4)n[nH]c3cn2)c1"
RESULT: 7.70

QUERY: // lookup pEC50 for "FC1(F)CCN(Cc2cncc(-c3cnc4[nH]nc(-c5cc6c(-c7ccoc7)cccc6[nH]5)c4c3)c2)C1"
RESULT: 7.96

QUERY: // lookup pEC50 for "c1csc(-c2nccc3[nH]c(-c4n[nH]c5cnc(-c6cncc(CN7CCCCC7)c6)cc45)cc23)c1"
RESULT: 7.51

QUERY: // lookup pEC50 for "Fc1cccc(-c2nccc3[nH]c(-c4n[nH]c5ccc(-c6cccnc6)nc45)cc23)c1"
RESULT: 7.55

* * *

Target: Dual specificity tyrosine-phosphorylation-regulated kinase 1A (Homo sapiens, UniProt Q13627)
Test: Inhibition of recombinant DYRK1A (unknown origin) using Ser/Thr 18 peptide as substrate incubated for 1 hr in presence of ATP by FRET assay
Values of EC50 strictly less than 8 nM map to condition met, and values of at least 8 nM map to condition not met.

QUERY: Is it true that EC50 reported for "CCC(=O)Nc1cncc(-c2cnc3[nH]nc(-c4nc5c(-c6ccsc6)cccc5[nH]4)c3c2)c1" is less than 8 nM?
RESULT: condition not met

QUERY: Is it true that EC50 reported for "O=C(Nc1ccnnc1)c1n[nH]c2ccc(-c3cccnc3)cc12" is less than 8 nM?
RESULT: condition met

QUERY: Is it true that EC50 reported for "c1cncc(-c2ccc3[nH]nc(-c4cc5cnccc5[nH]4)c3c2)c1" is less than 8 nM?
RESULT: condition met

QUERY: Is it true that EC50 reported for "O=C(Nc1cncc(-c2cnc3[nH]nc(-c4nc5c(-c6cccnc6)cncc5[nH]4)c3c2)c1)C1CC1" is less than 8 nM?
RESULT: condition not met

QUERY: Is it true that EC50 reported for "O=C(Nc1cncc(-c2ccc3[nH]nc(-c4nc5c(-c6ccccn6)ccnc5[nH]4)c3n2)c1)c1ccccc1" is less than 8 nM?
RESULT: condition not met

QUERY: Is it true that EC50 reported for "O=C(Nc1ccc2c(c1)OCCO2)c1n[nH]c2ccc(-c3cncc(CN4CCCCC4)c3)cc12" is less than 8 nM?
RESULT: condition met

QUERY: Is it true that EC50 reported for "CCCCC(=O)Nc1cncc(-c2ccc3[nH]nc(-c4cc5cccnc5[nH]4)c3c2)c1" is less than 8 nM?
RESULT: condition not met

QUERY: Is it true that EC50 reported for "Fc1cccc(-c2cncc3[nH]c(-c4n[nH]c5ccc(-c6cnccn6)nc45)nc23)c1" is less than 8 nM?
RESULT: condition not met

QUERY: Is it true that EC50 reported for "CN(C)Cc1cncc(-c2cc3c(-c4nc5c(-c6cccc(F)c6)cccc5[nH]4)n[nH]c3cn2)c1" is less than 8 nM?
RESULT: condition not met
